experiment: AUClast in C57BL/6 mouse at 10 mg/kg, po measured for 24 hrs by LC/MS/MS analysis; format: ADME, organism-based; set-up: dose 10 mg/kg, time 24 hrs, route po; details: in vivo
Measure Name: AUC(0-t) at 24 h (ng·h/mL)
Write the answer as a number in ng·h/mL, unit excluded.

Ask: Item CC(=O)c1c(C)c2cnc(Nc3ccc(N4CCN(CC5CCN(c6ccc7c(c6)C(=O)N(C6CCC(=O)NC6=O)C7=O)CC5)CC4)cn3)nc2n(C2CCCC2)c1=O (stereo unspecified) has what recorded AUC(0-t) at 24 h?
Reply: 2470

---

experiment: Tmax in C57BL/6 mouse at 10 mg/kg, po measured for 24 hrs by LC/MS/MS analysis; format: ADME, organism-based; conditions: in vivo
Measure Name: Tmax
Show the value, then the unit it is measured in.

Ask: Item CC(=O)c1c(C)c2cnc(Nc3ccc(N4CCN(CC5CCN(c6ccc7c(c6)C(=O)N(C6CCC(=O)NC6=O)C7=O)CC5)CC4)cn3)nc2n(C2CCCC2)c1=O (stereo unspecified) has what recorded Tmax?
Reply: 1 h

---

test: AUC (infinity) in C57BL/6 mouse at 10 mg/kg, po measured for 24 hrs by LC/MS/MS analysis; assay type: ADME, organism-based; set-up: dose 10 mg/kg, time 24 hrs, route po; conditions: in vivo
Measure Name: AUC(0-inf) (ng·h/mL)
Write the answer as a number in ng·h/mL, unit excluded.

Ask: Item CC(=O)c1c(C)c2cnc(Nc3ccc(N4CCN(CC5CCN(c6ccc7c(c6)C(=O)N(C6CCC(=O)NC6=O)C7=O)CC5)CC4)cn3)nc2n(C2CCCC2)c1=O (stereo unspecified) has what recorded AUC(0-inf)?
Reply: 2730

---

assay: Half life in C57BL/6 mouse at 25 mg/kg, ip measured for 24 hrs by LC/MS/MS analysis; assay type: ADME, organism-based; conditions: in vivo
Measure Name: half-life (min)
Write the answer as a number in min, unit excluded.

Ask: Item CC(=O)c1c(C)c2cnc(Nc3ccc(N4CCN(CCCCC(=O)N[C@H](C(=O)N5C[C@H](O)C[C@H]5C(=O)N[C@@H](C)c5ccc(-c6scnc6C)cc5)C(C)(C)C)CC4)cn3)nc2n(C2CCCC2)c1=O has what recorded half-life?
Reply: 420
